- Assay Context: 308.15 K; 100 kPa; Liquid; Vibrating tube method
Assay Metric: mass density (kg/m3)

molecule="C=CCCn1cc[n+](C)c1.[Br-] [1-(3-butenyl)-3-methylimidazolium bromide]" assay_metric="mass density" recorded_result=1335.7
molecule="C=CCCn1cc[n+](CC)c1.[Br-] [1-(3-butenyl)-3-ethylimidazolium bromide]" assay_metric="mass density" recorded_result=1286.92
molecule=CCCCCC[n+]1ccn(C)c1.O=S(=O)([N-]S(=O)(=O)C(F)(F)F)C(F)(F)F assay_metric="mass density" recorded_result=1363.1
molecule="C=CCCn1cc[n+](CCCC)c1.[Br-] [1-(3-butenyl)-3-butylimidazolium bromide]" assay_metric="mass density" recorded_result=1211.48
